From: PubChem BioAssay (NCI)

TGI by entry:
tested on: SF-268 CNS; assay: NCI tumour cell line growth inhibition, 48 h

Here's what some known entries look like.
CCOP(=O)(OCC)C(c1ccc(F)cc1)N(C(=O)NC(F)(F)F)c1ccc(F)cc1 (centres undefined) = > 100 µM
COC(=O)[C@@]12CSC[C@]1(C(=O)OC)N[C@@H](c1ccccc1O)C2 = > 100 µM
CCO/N=C\c1ccc2oc(-c3ccccc3)cc(=O)c2c1 = 24.2 µM
O=C(O)/C=C/c1c2ccc(=O)c(O)c-2oc2c(O)c(O)ccc12 = > 100 µM
CN1CCN(C2=C(Cl)C(=O)c3ccccc3C2=O)CC1 = 10.9 µM

Request: TGI lookup needed for `CC(=O)CC[N+](C)(C)C` , thanks.
Result: 76.8 µM

Request: Another compound: `Cc1cc(NC(=O)NCCOc2ccc(N3C(N)=NC(N)=NC3(C)C)cc2Cl)ccc1S(=O)(=O)F`
Result: 99.5 µM
